system: 5-HT transporter (Rattus norvegicus)
Construct: synaptosomes of rat brain areas are freshly isolated; from tissue; host or cells: rat brain synaptosomes (P2 fraction) from marrow and pons
experiment: Inhibition of 5-HT uptake in rat brain synaptosomes
Assay type: biochemical
stated-conditions: read-out: Uptake 5-HT, % inhibition; Table III; rat, 1 μM
recorded-metric: inhibition at 1 µM (%)
Hi! Could you send only the number? It should be in %, unit omitted.

Below: 2 compounds and their reported inhibition at 1 µM.
O=C1NC2(CCN(C(=O)c3ccccc3Cl)CC2)NC1Cc1ccccc1 (centres unmarked)    64
CN(C)c1cccc(C(=O)N2CCC3(CC2)NC(Cc2ccccc2)C(=O)N3Cc2ccccc2)c1 (centres unmarked)    79

Query string: Give a short answer stating reported inhibition at 1 µM for COc1cc(C(=O)N2CCC3(CC2)NCC(=O)N3Cc2ccccc2F)cc(OC)c1OC .
Result string: 44

Query string: Give a short answer stating reported inhibition at 1 µM for CC(C)CC1NC2(CCN(C(=O)c3cccc(Cl)c3)CC2)NC1=O (centres unmarked) .
Result string: 41

Query string: Give a short answer stating reported inhibition at 1 µM for CCCCN1C(=O)C(CCSC)NC12CCN(C(=O)Cc1ccc(OC)c(OC)c1)CC2 (centres unmarked) .
Result string: 67

Query string: Give a short answer stating reported inhibition at 1 µM for C=CCN1C(=O)C(CCSC)NC12CCN(C(=O)CCc1ccccc1)CC2 (centres unmarked) .
Result string: 32

Query string: Give a short answer stating reported inhibition at 1 µM for CCCCN1C(=O)C(CCSC)NC12CCN(C(=O)C1CCCCC1)CC2 (centres unmarked) .
Result string: 55

Query string: Give a short answer stating reported inhibition at 1 µM for CC(C)C1NC2(CCN(C(=O)c3ccco3)CC2)N(Cc2ccccc2C#N)C1=O (centres unmarked) .
Result string: 34

Query string: Give a short answer stating reported inhibition at 1 µM for CC(C)(C)CC(=O)N1CCC2(CC1)NC(Cc1ccccc1)C(=O)N2Cc1ccccc1 (centres unmarked) .
Result string: 72

Query string: Give a short answer stating reported inhibition at 1 µM for CCCCN1C(=O)C(CCSC)NC12CCN(C(=O)c1ccc(C#N)cc1)CC2 (centres unmarked) .
Result string: 44

Query string: Give a short answer stating reported inhibition at 1 µM for CSCCC1NC2(CCN(C(=O)c3cccnc3Oc3ccccc3)CC2)N(Cc2ccccc2[N+](=O)[O-])C1=O (centres unmarked) .
Result string: 34

Query string: Give a short answer stating reported inhibition at 1 µM for CC(C)CC1NC2(CCN(C(=O)c3cccc(N(C)C)c3)CC2)N(Cc2ccccc2C#N)C1=O (centres unmarked) .
Result string: 58

Query string: Give a short answer stating reported inhibition at 1 µM for COc1ccc(C(=O)N2CCC3(CC2)NCC(=O)N3Cc2ccccc2F)cc1 .
Result string: 65

Query string: Give a short answer stating reported inhibition at 1 µM for Cc1nnsc1C(=O)N1CCC2(CC1)NC(C(C)C)C(=O)N2Cc1ccccc1 (centres unmarked) .
Result string: 55

###

system: 5-HT transporter (Rattus norvegicus)
Construct: synaptosomes of rat brain areas are freshly isolated; from tissue; host or cells: rat brain synaptosomes (P2 fraction) from marrow and pons
experiment: Inhibition of 5-HT uptake in rat brain synaptosomes
Assay type: biochemical
stated-conditions: read-out: Uptake 5-HT, % inhibition; Table III; rat, 1 μM
inhibition at 1 µM reference
Hi! Could you send only the number? It should be in %, unit omitted.

Below: 10 molecules and their reported inhibition at 1 µM.
CC(C)=CCN1C(=O)C(C(C)C)NC12CCN(C(=O)c1c(-c3c(F)cccc3Cl)noc1C)CC2 (centres unmarked)    30
CCOC(=O)CN1C(=O)C(Cc2ccccc2)NC12CCN(C(=O)COCc1ccccc1)CC2 (centres unmarked)    55
CCSc1ncccc1C(=O)N1CCC2(CC1)NC(Cc1ccccc1)C(=O)N2C (centres unmarked)    56
CCCCN1C(=O)C(CCSC)NC12CCN(C(=O)CCCOc1ccccc1)CC2 (centres unmarked)    39
CC(C)CC1NC2(CCN(C(=O)c3cc(C(C)(C)C)nn3C)CC2)N(Cc2cccc(C#N)c2)C1=O (centres unmarked)    57
O=C1NC2(CCN(C(=O)c3ccc4ccccc4c3)CC2)NC1Cc1ccccc1 (centres unmarked)    34
CCCCN1C(=O)C(CCSC)NC12CCN(C(=O)COCc1ccccc1)CC2 (centres unmarked)    40
CSCCC1NC2(CCN(C(=O)c3cccnc3Oc3ccccc3)CC2)N(Cc2ccccc2F)C1=O (centres unmarked)    71
CSCCC1NC2(CCN(C(=O)c3cccc4ccccc34)CC2)N(C)C1=O (centres unmarked)    47
O=C(c1ccc(Br)cc1)N1CCC2(CC1)NC(Cc1ccccc1)C(=O)N2Cc1ccccc1 (centres unmarked)    68

Next up:
Query string: Give a short answer stating reported inhibition at 1 µM for CSCCC1NC2(CCN(C(=O)CC3NC(=O)NC3=O)CC2)N(Cc2ccc(F)cc2)C1=O (centres unmarked) .
Result string: 42

###

system: 5-HT transporter (Rattus norvegicus, UniProt P31652)
Construct: synaptosomes of rat brain areas are freshly isolated; from tissue; host or cells: rat brain synaptosomes (P2 fraction) from marrow and pons
Sequence (P31652 whole entry): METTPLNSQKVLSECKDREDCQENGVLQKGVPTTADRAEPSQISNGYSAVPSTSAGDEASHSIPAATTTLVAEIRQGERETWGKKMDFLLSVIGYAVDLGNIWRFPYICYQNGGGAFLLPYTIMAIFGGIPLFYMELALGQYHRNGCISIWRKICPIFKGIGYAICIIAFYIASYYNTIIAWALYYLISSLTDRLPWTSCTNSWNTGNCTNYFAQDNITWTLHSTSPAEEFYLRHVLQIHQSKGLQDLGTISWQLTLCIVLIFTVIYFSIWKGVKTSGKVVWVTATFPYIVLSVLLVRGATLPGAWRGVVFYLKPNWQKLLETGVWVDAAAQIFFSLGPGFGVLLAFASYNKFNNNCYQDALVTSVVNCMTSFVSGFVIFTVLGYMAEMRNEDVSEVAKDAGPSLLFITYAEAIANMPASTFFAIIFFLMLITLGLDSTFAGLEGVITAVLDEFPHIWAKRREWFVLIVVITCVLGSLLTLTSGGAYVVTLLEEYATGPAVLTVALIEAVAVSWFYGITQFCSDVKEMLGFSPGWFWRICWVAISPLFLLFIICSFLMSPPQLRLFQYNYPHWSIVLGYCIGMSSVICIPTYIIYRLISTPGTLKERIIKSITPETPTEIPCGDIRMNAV
experiment: Inhibition of 5-HT uptake in rat brain synaptosomes
Format: biochemical
stated-conditions: Table III; rat, 1 μM
recorded-metric: Uptake 5-HT, rat, 1 μM, % inhibition (%)
Hi! Could you send only the number? It should be in %, unit omitted.

CC(=O)Nc1ccc(C(=O)N2CCC3(CC2)NC(CC(C)C)C(=O)N3CCCCOC(C)=O)cc1 (stereo not drawn)    44
C=CCN1C(=O)C(CCSC)NC12CCN(C(=O)c1ccc(S(N)(=O)=O)cc1)CC2 (stereo not drawn)    50
CCCCN1C(=O)C(CCSC)NC12CCN(C(=O)C1COc3ccc(Cl)cc3C1)CC2 (stereo not drawn)    72
CCOC(=O)C(C)(C)C(=O)N1CCC2(CC1)NC(CC(C)C)C(=O)N2CCCCOC(C)=O (stereo not drawn)    39
CCSc1ncccc1C(=O)N1CCC2(CC1)NC(CC(C)C)C(=O)N2CCCCOC(C)=O (stereo not drawn)    59
CC(=O)OC(C(=O)N1CCC2(CC1)NC(Cc1ccccc1)C(=O)N2C)c1ccccc1 (stereo not drawn)    35

Query string: Lab note: 5-HT transporter (Rattus norvegicus, UniProt P31652) assay, enter Uptake 5-HT, rat, 1 μM, % inhibition for CCOc1ccccc1C(=O)N1CCC2(CC1)NC(CC(C)C)C(=O)N2CCCCOC(C)=O (stereo not drawn) here
Result string: 48

Query string: Lab note: 5-HT transporter (Rattus norvegicus, UniProt P31652) assay, enter Uptake 5-HT, rat, 1 μM, % inhibition for CC(=O)OC(C(=O)N1CCC2(CC1)NCC(=O)N2Cc1cccc(C#N)c1)c1ccccc1 (stereo not drawn) here
Result string: 51

Query string: Lab note: 5-HT transporter (Rattus norvegicus, UniProt P31652) assay, enter Uptake 5-HT, rat, 1 μM, % inhibition for CCOC(=O)C(C)(C)C(=O)N1CCC2(CC1)NC(CCSC)C(=O)N2Cc1ccccc1[N+](=O)[O-] (stereo not drawn) here
Result string: 58

###

Tested on: NA transporter
experiment: Inhibition of noradrenaline uptake in rat brain synaptosomes
Format: biochemical
stated-conditions: Table III
Uptake (NA), rat, 10 μM, % inhibition reference

Below: 8 molecules and their reported Uptake (NA), rat, 10 μM, % inhibition.
CCOC(=O)CN1C(=O)C(CCSC)NC12CCN(C(=O)c1ccc(C(C)(C)C)cc1)CC2 (stereo not drawn)    32%
CC(C)C1NC2(CCN(C(=O)c3c(F)c(F)c(F)c(F)c3F)CC2)NC1=O (stereo not drawn)    31%
CCOC(=O)CN1C(=O)C(CCSC)NC12CCN(C(=O)c1ccccc1C(=O)OCc1ccccc1)CC2 (stereo not drawn)    36%
CC(C)C1NC2(CCN(C(=O)c3ccco3)CC2)N(Cc2ccccc2C#N)C1=O (stereo not drawn)    30%
CSCCC1NC2(CCN(C(=O)c3cccnc3Oc3ccccc3)CC2)N(C)C1=O (stereo not drawn)    32%
Cc1cc(C(=O)N2CCC3(CC2)NC(CC(C)C)C(=O)N3Cc2c(Cl)cccc2Cl)c(C)o1 (stereo not drawn)    36%
CSCCC1NC2(CCN(C(=O)CC3NC(=O)NC3=O)CC2)N(Cc2ccc(F)cc2)C1=O (stereo not drawn)    32%
CN1C(=O)C(Cc2ccccc2)NC12CCN(C(=O)COCc1ccccc1)CC2 (stereo not drawn)    36%

Query string: Give a short answer stating reported Uptake (NA), rat, 10 μM, % inhibition for C=CCN1C(=O)C(CCSC)NC12CCN(C(=O)CCc1ccccc1)CC2 (stereo not drawn) .
Result string: 33%

Query string: Give a short answer stating reported Uptake (NA), rat, 10 μM, % inhibition for Cc1nnsc1C(=O)N1CCC2(CC1)NCC(=O)N2Cc1ccccc1 .
Result string: 32%

Query string: Give a short answer stating reported Uptake (NA), rat, 10 μM, % inhibition for COC(=O)c1ccc(CN2C(=O)CNC23CCN(C(=O)c2ccnc(Cl)c2)CC3)cc1 .
Result string: 31%

Query string: Give a short answer stating reported Uptake (NA), rat, 10 μM, % inhibition for CSCCC1NC2(CCN(C(=O)c3ccccn3)CC2)N(Cc2ccc(F)cc2)C1=O (stereo not drawn) .
Result string: 32%

Query string: Give a short answer stating reported Uptake (NA), rat, 10 μM, % inhibition for CCCC(C)C(=O)N1CCC2(CC1)NCC(=O)N2Cc1ccccc1C#N (stereo not drawn) .
Result string: 52%

Query string: Give a short answer stating reported Uptake (NA), rat, 10 μM, % inhibition for CCOC(=O)CN1C(=O)C(Cc2ccccc2)NC12CCN(C(=O)c1ccc(S(N)(=O)=O)cc1)CC2 (stereo not drawn) .
Result string: 46%

Query string: Give a short answer stating reported Uptake (NA), rat, 10 μM, % inhibition for C=CCCC(=O)N1CCC2(CC1)NCC(=O)N2Cc1ccccc1F .
Result string: 41%

Query string: Give a short answer stating reported Uptake (NA), rat, 10 μM, % inhibition for CN1C(=O)C(Cc2ccccc2)NC12CCN(C(=O)CC(C)(C)C)CC2 (stereo not drawn) .
Result string: 44%

Query string: Give a short answer stating reported Uptake (NA), rat, 10 μM, % inhibition for C#CCN1C(=O)C(CC(C)C)NC12CCN(C(=O)COc1ccc(Cl)cc1)CC2 (stereo not drawn) .
Result string: 36%

Query string: Give a short answer stating reported Uptake (NA), rat, 10 μM, % inhibition for CCOC(=O)CN1C(=O)C(Cc2ccccc2)NC12CCN(C(=O)c1ccc(NC(C)=O)cc1)CC2 (stereo not drawn) .
Result string: 57%

Query string: Give a short answer stating reported Uptake (NA), rat, 10 μM, % inhibition for CCOC(=O)CN1C(=O)C(Cc2ccccc2)NC12CCN(C(=O)c1ccc(-c3ccccc3)cc1)CC2 (stereo not drawn) .
Result string: 38%

Query string: Give a short answer stating reported Uptake (NA), rat, 10 μM, % inhibition for Cc1cccc(C(=O)N2CCC3(CC2)NC(=O)C(Cc2ccccc2)N3)c1C (stereo not drawn) .
Result string: 37%

Query string: Give a short answer stating reported Uptake (NA), rat, 10 μM, % inhibition for CC(C)CC1NC2(CCN(C(=O)c3ccc4c(c3)OCO4)CC2)N(Cc2c(Cl)cccc2Cl)C1=O (stereo not drawn) .
Result string: 36%

Query string: Give a short answer stating reported Uptake (NA), rat, 10 μM, % inhibition for N#Cc1cccc(CN2C(=O)CNC23CCN(C(=O)c2cc(C(F)(F)F)cc(C(F)(F)F)c2)CC3)c1 .
Result string: 38%

Query string: Give a short answer stating reported Uptake (NA), rat, 10 μM, % inhibition for C=CCN1C(=O)C(CCSC)NC12CCN(C(=O)c1cccnc1SC)CC2 (stereo not drawn) .
Result string: 31%

Query string: Give a short answer stating reported Uptake (NA), rat, 10 μM, % inhibition for CC(C)C1NC2(CCN(C(=O)c3c(F)cccc3Cl)CC2)NC1=O (stereo not drawn) .
Result string: 34%

Query string: Give a short answer stating reported Uptake (NA), rat, 10 μM, % inhibition for Cc1cccc(C(=O)N2CCC3(CC2)NCC(=O)N3CCOc2ccccc2)c1 .
Result string: 38%

Query string: Give a short answer stating reported Uptake (NA), rat, 10 μM, % inhibition for CCOC(=O)CCC(=O)N1CCC2(CC1)NCC(=O)N2Cc1ccccc1F .
Result string: 37%

Query string: Give a short answer stating reported Uptake (NA), rat, 10 μM, % inhibition for C=CCN1C(=O)C(C(C)C)NC12CCN(C(=O)c1ccc(-c3ccccc3)cc1)CC2 (stereo not drawn) .
Result string: 32%

Query string: Give a short answer stating reported Uptake (NA), rat, 10 μM, % inhibition for CSCCC1NC2(CCN(C(=O)c3ccc4c(c3)OCO4)CC2)N(Cc2cccc(C#N)c2)C1=O (stereo not drawn) .
Result string: 30%

Query string: Give a short answer stating reported Uptake (NA), rat, 10 μM, % inhibition for CCCCN1C(=O)C(CCSC)NC12CCN(C(=O)c1ccc(C#N)cc1)CC2 (stereo not drawn) .
Result string: 36%
